These data points were gathered from ChEMBL document CHEMBL4715728.

Reported Activity by item:
- EXPERIMENT: Cytotoxicity against Sprague-Dawley rat Cerebral cortex neuron assessed as LDH activity at 100 uM incubated for 24 hrs by LDH assay (reference value: […])
- Assay type: tissue-based

# MOLECULE, Activity [mU/ml]
records = [
    ("O=C(CCCCC1CCSS1)N1CCN(Cc2ccc(F)cc2)CC1 (centres undefined)", 0.34),
    ("O=C(CCCCC1CCSS1)OC1CCN(Cc2ccc(F)cc2)CC1 (centres undefined)", 0.32),
    ("COc1ccc(CN2CCC(OC(=O)CCCCC3CCSS3)CC2)cc1 (centres undefined)", 0.34),
    ("COc1ccc(CN2CCN(C(=O)CCCCC3CCSS3)CC2)cc1 (centres undefined)", 0.34),
    ("O=C(CCCC[C@@H]1CCSS1)N1CCN(Cc2ccccc2)CC1", 0.32),
    ("O=C(CCCCC1CCSS1)N1CCN(Cc2ccccc2)CC1 (centres undefined)", 0.34),
    ("O=C(O)CCCC[C@@H]1CCSS1", 0.29),
    ("O=C(CCCC[C@@H]1CCSS1)OC1CCN(Cc2ccccc2)CC1", 0.32),
    ("O=C(CCCCC1CCSS1)OC1CCN(Cc2ccccc2)CC1 (centres undefined)", 0.32),
]
